Provide the reported growth of each item.
- Test system: A498 renal
- procedure-details: NCI-60 one-dose screen, 48 h (100 = growth as untreated, 0 = no growth, -100 = all killed)
- measurement-conditions: 10 µM unless noted
This is part of a sample that, as a whole, favours compounds with a hit. Of some 83,000 tested, about 20% had one in any assay.
Give bare numbers, in %.

Some entries whose results are on file:
C[C@H]1Oc2cc(cnc2N)-c2c(nn(C)c2C#N)CN(C)C(=O)c2ccc(F)cc21 | 109
CCN(CC)CCOc1ccc(/C(=C(\C)c2ccc(Cl)cc2)c2ccc(Cl)cc2)cc1 | 79.6
Cc1cc(C(O)CN(C)C)cc2c1ccc1cc(C(C)C)ccc12 (centres undefined) | 76.8
CCCCCCCCCNCCCCCCCCC | 88.9
CCN1CCN(c2cc(C)nc(N(CCCNc3ccnc4cc(Cl)ccc34)Cc3cccs3)n2)CC1 | -13.7

Give growth for each of the items listed below.
1. C=CCN(/C=C1/C(=O)O[C@H](COC)[C@@]2(C)C1=C(O)C(=O)C1=C2[C@H](OC(C)=O)C[C@]2(C)C(=O)CC[C@@H]12)CC=C
2. Cc1cc(C(=O)Nc2cc(Oc3ccc4nc(NC(=O)C5CC5)cn4n3)ccc2C)n(C)n1
3. Cn1cnc2c(F)c(Nc3ccc(Br)cc3Cl)c(C(=O)NOCCO)cc21
4. C[C@@H](C[C@H](CCO)c1cc(C(F)(F)F)cc(C(F)(F)F)c1)c1ccc2ccccc2c1

Output line:
[-66.8, -39.2, -37, 120]

Where do the numbers come from? From PubChem BioAssay (NCI).
